Reference source for all entries: patent US20130053392A1

TESTED SYSTEM: hCA IX (Homo sapiens, UniProt Q16790)
Construct: made in house
EXPERIMENT DESCRIPTION: CA-catalysed CO2 hydration stopped-flow inhibition assay, hCA IX
Assay type: biochemical
REPORTED CONDITIONS: Table 2, selectivity ratio
Exercise: state measured KiCAII/KiCAIX for each of the molecules provided.
Give bare numbers.

Record excerpt, results attached:
COc1ccc(NC(=O)Nc2ccc(NS(N)(=O)=O)cc2)c(C)c1 [Compound 7e] | 14.9
NS(=O)(=O)Nc1ccc(NC(=O)Nc2ccc(Cl)cc2)cc1 [Compound 7o] | 7.3
CCCCOc1ccc(NC(=O)Nc2ccc(NS(N)(=O)=O)cc2)cc1 [Compound 7n] | 19.5
Cc1ccccc1NC(=O)NCc1ccc(NS(N)(=O)=O)cc1 [Compound 8g] | 16.3

Attention now shifts to the item below.
Request: # query: KiCAII/KiCAIX of entry NS(=O)(=O)Nc1ccc(NC(=O)Nc2ccc(CCc3ccccc3)cc2)cc1 [Compound 7m]
Response: 14.3
